Biological target: PP Elastase (Sus scrofa)
Sequence (P00772 27-266): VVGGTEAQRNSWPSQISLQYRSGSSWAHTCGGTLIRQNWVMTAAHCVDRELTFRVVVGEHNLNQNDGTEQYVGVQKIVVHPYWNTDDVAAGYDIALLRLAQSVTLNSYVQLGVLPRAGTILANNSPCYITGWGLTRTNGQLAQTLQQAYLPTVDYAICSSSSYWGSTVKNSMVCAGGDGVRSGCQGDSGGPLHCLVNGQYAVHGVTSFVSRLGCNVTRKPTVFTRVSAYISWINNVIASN
observation.type: Ki

Please review the entries below; each comes with its answer.
molecule: CCNC(=O)C(=O)[C@H](Cc1ccccc1)NC(=O)[C@H](CC(C)C)NC(=O)OCc1ccccc1 [Z-Leu-Phe-CONHEt, Z-Leu-Phe-CONH-Et]
result: > 150 µM
//
molecule: CCC(NC(=O)C(CC(C)C)NC(=O)OCc1ccccc1)C(=O)C(=O)O (stereo not drawn) [Z-Leu-Abu-COOH]
result: > 150 µM
//
molecule: CC(C)C[C@H](NC(=O)OCc1ccccc1)C(=O)N[C@@H](Cc1ccccc1)C(=O)C(=O)OCc1ccccc1 [Z-Leu-Phe-COOBz, Z-Leu-Phe-CO2 Bzl]
result: > 100 µM
//
molecule: CCCCNC(=O)C(=O)C(Cc1ccccc1)NC(=O)C(CC(C)C)NC(=O)OCc1ccccc1 (stereo not drawn) [Z-Leu-Phe-CONHnBu, Z-Leu-Phe-CONH-nBu]
result: > 100 µM
//
molecule: CCOC(=O)C(=O)C(CC)NC(=O)C(CC(C)C)NC(=O)C(CC(C)C)NC(=O)OCc1ccccc1 (stereo not drawn) [Z-Leu-Leu-Abu-COOEt]
result: 25 µM
//
molecule: CCCC(NC(=O)[C@H](CC(C)C)NC(=O)OCc1ccccc1)C(=O)C(=O)OCC (mixture of isomers) [Z-Leu-Nva-COOEt, Z-Leu-DL-Nva-COOEt]
result: 2.3 µM
//
molecule: CCNC(=O)C(=O)[C@H](CC)NC(=O)[C@H](CC(C)C)NC(=O)OCc1ccccc1 [Z-Leu-Abu-CONHEt, Z-Leu-Abu-CONH-Et]
result: 65 µM
//
molecule: CCOC(=O)C(=O)C(Cc1ccccc1)NC(=O)C(CC(C)C)NC(=O)OCc1ccccc1 (stereo not drawn) [Z-Leu-Phe-COOEt]
result: > 100 µM
//
molecule: CCCCNC(=O)C(=O)C(CC)NC(=O)C(CC(C)C)NC(=O)OCc1ccccc1 (stereo not drawn) [Z-Leu-Abu-CONHnBu, Z-Leu-Abu-CONH-nBu]
result: 5 µM
//
molecule: CCOC(=O)C(=O)[C@H](CC)NC(=O)[C@H](CC(C)C)NC(=O)[C@H](CC(C)C)NC(=O)c1ccc2ccccc2c1 [2-NapCO-Leu-Leu-Abu-COOEt]
result: 28 µM

# input molecule: CC[C@H](NC(=O)[C@H](CC(C)C)NC(=O)OCc1ccccc1)C(=O)C(=O)OCc1ccccc1 [Z-Leu-Abu-COOBz, Z-Leu-Abu-CO2 Bzl] ; wanted: its Ki
> 100 µM

Could you do the same for CCOC(=O)C(=O)C(Cc1ccc(Cl)cc1)NC(=O)C(CC(C)C)NC(=O)OCc1ccccc1 (stereo not drawn) [Z-Leu-4-Cl-Phe-COOEt] , please?
> 100 µM

Could you do the same for CCCCOC(=O)C(=O)[C@H](Cc1ccccc1)NC(=O)[C@H](CC(C)C)NC(=O)OCc1ccccc1 [Z-Leu-Phe-COOnBu, Z-Leu-Phe-CO2 Bu] , please?
> 100 µM

Could you do the same for CCOC(=O)C(=O)[C@H](Cc1ccccc1)NC(=O)[C@H](CC(C)C)NC(=O)[C@H](CC(C)C)NC(=O)OCc1ccccc1 [Z-Leu-Leu-Phe-COOEt] , please?
> 100 µM

* * *

Target: Calpain II (Homo sapiens, UniProt P17655)
Sequence (P17655 1-700): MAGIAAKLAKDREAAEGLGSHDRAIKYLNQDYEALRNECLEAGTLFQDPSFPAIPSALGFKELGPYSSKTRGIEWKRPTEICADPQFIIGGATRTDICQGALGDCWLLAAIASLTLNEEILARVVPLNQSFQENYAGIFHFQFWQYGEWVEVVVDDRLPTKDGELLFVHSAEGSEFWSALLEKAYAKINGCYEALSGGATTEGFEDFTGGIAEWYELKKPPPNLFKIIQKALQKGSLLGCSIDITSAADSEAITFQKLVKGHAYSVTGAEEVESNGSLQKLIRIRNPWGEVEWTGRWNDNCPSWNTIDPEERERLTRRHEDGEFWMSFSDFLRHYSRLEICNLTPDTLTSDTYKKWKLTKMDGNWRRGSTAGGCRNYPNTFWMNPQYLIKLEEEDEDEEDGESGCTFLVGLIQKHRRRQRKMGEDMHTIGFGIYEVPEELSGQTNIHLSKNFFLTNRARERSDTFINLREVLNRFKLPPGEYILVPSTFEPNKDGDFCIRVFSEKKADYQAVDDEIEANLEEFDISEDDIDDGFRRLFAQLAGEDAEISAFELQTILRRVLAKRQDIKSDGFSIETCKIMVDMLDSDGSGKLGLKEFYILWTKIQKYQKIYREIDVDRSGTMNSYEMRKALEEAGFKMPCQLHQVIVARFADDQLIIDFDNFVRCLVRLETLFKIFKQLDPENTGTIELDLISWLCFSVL
Sequence (P04632 1-268 partner): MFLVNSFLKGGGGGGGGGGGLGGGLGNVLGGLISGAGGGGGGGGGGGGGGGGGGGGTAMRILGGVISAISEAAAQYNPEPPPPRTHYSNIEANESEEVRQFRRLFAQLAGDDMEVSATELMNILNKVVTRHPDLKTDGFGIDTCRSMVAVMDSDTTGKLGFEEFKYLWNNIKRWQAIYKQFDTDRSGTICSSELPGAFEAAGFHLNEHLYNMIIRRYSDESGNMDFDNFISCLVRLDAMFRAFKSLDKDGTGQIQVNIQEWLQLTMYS
Measured pIC50 accompanies every entry in the list below.
Notebook: values listed as pIC50 are -log10 of the concentration (mol/L).

molecule: N=C(N)SCCCOc1oc(=O)c2cc(N)ccc2c1Cl [NH2 -CiTPrOIC (ACITIC)]
result.number: 3.92

Now for the molecule whose pIC50 we want.
# input molecule: N=C(N)SCCCOc1oc(=O)c2cc(NC(=O)[C@@H](N)Cc3ccccc3)ccc2c1Cl [L-Phe-NH-CiTPrOIC] ; wanted: its pIC50
4.52

* * *

Biological target: Cathepsin B from bovine spleen (Bos taurus, UniProt P07688)
observation.type: Ki (µM)
The figure you give is taken to be in µM; do not add the unit.

Please review the entries below; each comes with its answer.
compound: CCCC(NC(=O)[C@H](CC(C)C)NC(=O)OCc1ccccc1)C(=O)C(=O)OCC (mixture of isomers) [Z-Leu-Nva-COOEt, Z-Leu-DL-Nva-COOEt]
observation.type: Ki
result.number: 30

compound: CC(=O)N[C@@H](CC(C)C)C(=O)N[C@@H](CC(C)C)C(=O)N[C@H](C=O)CCCNC(=N)N [Leupeptin, Ac-Leu-Leu-Arg-H, reference compound]
observation.type: Ki
result.number: 6

compound: CCOC(=O)C(=O)[C@H](CC)NC(=O)[C@H](CC(C)C)NC(=O)OCc1ccccc1 (racemic) [Z-Leu-Abu-COOEt, Z-Leu-DL-Abu-COOEt]
observation.type: Ki
result.number: 14

Now for the compound whose Ki we want.
Lab request: please report Ki under test system Cathepsin B from bovine spleen (Bos taurus, UniProt P07688) for CCCCC(NC(=O)C(CC(C)C)NC(=O)OCc1ccccc1)C(=O)C(=O)OCC (stereo not drawn) [Z-Leu-Nle-COOEt, Z-Leu-NLeu-CO2 Et]
18

* * *

Heads up, these compounds all have Ki values measured for Chym (Bos taurus).
The figure you give is taken to be in µM; do not add the unit.

# input compound: CCOC(=O)C(=O)[C@H](CC)NC(=O)[C@H](CC(C)C)NC(=O)[C@H](CC(C)C)NS(=O)(=O)c1ccc(C)cc1 ; wanted: its Ki
25

Could you do the same for CC(C)C[C@H](NC(=O)OCc1ccccc1)C(=O)N[C@@H](Cc1ccccc1)C(=O)C(=O)OCc1ccccc1 , please?
1.6

* * *

Heads up, these compounds all have IC50 values measured for UniProt P07384.
Sequence (P07384 whole entry, one chain of several): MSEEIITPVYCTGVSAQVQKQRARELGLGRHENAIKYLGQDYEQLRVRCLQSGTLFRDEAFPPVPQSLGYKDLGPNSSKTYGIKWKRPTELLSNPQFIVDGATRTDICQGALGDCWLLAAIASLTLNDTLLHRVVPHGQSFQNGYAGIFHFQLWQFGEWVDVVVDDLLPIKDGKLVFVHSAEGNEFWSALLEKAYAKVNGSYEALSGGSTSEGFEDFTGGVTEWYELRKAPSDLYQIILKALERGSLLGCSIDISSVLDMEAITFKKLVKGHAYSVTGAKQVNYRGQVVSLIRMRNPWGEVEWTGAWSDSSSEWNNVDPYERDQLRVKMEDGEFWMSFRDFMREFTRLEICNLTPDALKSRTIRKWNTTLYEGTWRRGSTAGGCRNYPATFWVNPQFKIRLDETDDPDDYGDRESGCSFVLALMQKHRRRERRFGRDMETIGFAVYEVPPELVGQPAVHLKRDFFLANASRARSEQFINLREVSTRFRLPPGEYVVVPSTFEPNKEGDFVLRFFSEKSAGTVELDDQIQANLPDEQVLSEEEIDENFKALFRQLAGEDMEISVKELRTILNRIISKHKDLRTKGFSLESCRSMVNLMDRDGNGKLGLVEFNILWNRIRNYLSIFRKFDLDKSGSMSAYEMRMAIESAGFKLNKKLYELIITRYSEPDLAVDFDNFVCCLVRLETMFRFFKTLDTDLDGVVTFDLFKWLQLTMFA
The figure you give is taken to be in µM; do not add the unit.

Please review the entries below; each comes with its answer.
compound: N=C(N)SCCOc1oc(=O)c2cc(NC(=O)NCc3ccccc3)ccc2c1Cl
target.entity: UniProt P07384
IC50 (µM): 90
//
compound: N=C(N)SCCCOc1oc(=O)c2cc(NC(=O)NCc3ccccc3)ccc2c1Cl
target.entity: UniProt P07384
IC50 (µM): 80

Now for the compound whose IC50 we want.
# input compound: N=C(N)SCCCOc1oc(=O)c2ccccc2c1Cl ; wanted: its IC50
100

* * *

Biological target: Calpain II
Experiment: Calpain II KI (Table 1B(ii))
observation.type: pKi
Notebook: values listed as pKi are -log10 of the concentration (mol/L).

Please review the entries below; each comes with its answer.
compound: CC(C)CNC(=O)C(=O)[C@H](Cc1ccccc1)NC(=O)[C@H](CC(C)C)NC(=O)OCc1ccccc1 [Z-Leu-Phe-CONHiBu, Z-Leu-Phe-CONH-iBu]
observation.type: pKi
result.number: 7.19
--
compound: CCOC(=O)C(=O)[C@H](CC)NC(=O)[C@H](CC(C)C)NC(=O)[C@H](CC(C)C)NC(=O)c1ccc2ccccc2c1 [2-NapCO-Leu-Leu-Abu-COOEt]
observation.type: pKi
result.number: 7.05

Lab request: please report pKi under test system Calpain II for CC(C)C[C@H](NC(=O)OCc1ccccc1)C(=O)N[C@@H](Cc1ccccc1)C(=O)C(=O)OCc1ccccc1 [Z-Leu-Phe-COOBz, Z-Leu-Phe-CO2 Bzl]
5.80

Could you do the same for CC[C@H](NC(=O)[C@H](CC(C)C)NC(=O)OCc1ccccc1)C(=O)C(=O)NCCc1ccccc1 [Z-Leu-Abu-CONH-(CH2)2 -Ph, Z-Leu-Abu-CONH-(CH2)2 Ph] , please?
7.66

Could you do the same for CCC(NC(=O)C(CC(C)C)NC(=O)OCc1ccccc1)C(=O)C(=O)NCC(C)C (stereo not drawn) [Z-Leu-Abu-CONHiBu, Z-Leu-Abu-CONH-iBu] , please?
6.85

Reference source for all entries: patent US5444042A
